# Test Details: Evaluation of solubility of acid generator in PGMEA
# Condition Label: maximal concentration dissolved in propylene glycol monomethyl ether acetate (PGMEA)
Below: a set of entries, each annotated with reported Solvent solubility of acid generator.

[[record]]
molecule = "CCCCC(Oc1cc2c3c(cccc3c1)C(=O)N(OS(=O)(=O)C(F)(F)C(=O)OCCC1CCCCC1)C2=O)C(=O)O (stereo not shown)"
result_type = "Solvent solubility of acid generator"
obs_value = "10% by mass"

[[record]]
molecule = "CCCCC(CC)COC(=O)CSc1ccc2c3c(cccc13)C(=O)N(OS(=O)(=O)C(F)(F)C(=O)OCCC1CCCCC1)C2=O (stereo not shown)"
result_type = "Solvent solubility of acid generator"
obs_value = "> 20% by mass"

[[record]]
molecule = "CCCCC(Oc1cc2c3c(cccc3c1)C(=O)N(OS(=O)(=O)C(F)(F)C(=O)OC)C2=O)C(=O)OC(C)(C)C (stereo not shown)"
result_type = "Solvent solubility of acid generator"
obs_value = "15% by mass"


// next item, Solvent solubility of acid generator requested
## Input // returns reported Solvent solubility of acid generator for input O=C1c2cccc3cccc(c23)C(=O)N1OS(=O)(=O)C(F)(F)F [PAG-5, reference compound]
## Output < 1% by mass
